Each record here notes measured IC50.
Biological target: EGFR (L858R T790M C797S) (Homo sapiens, UniProt P00533, C797S/L858R/T790M)
Sequence (P00533 25-1210 T790M/C797S/L858R): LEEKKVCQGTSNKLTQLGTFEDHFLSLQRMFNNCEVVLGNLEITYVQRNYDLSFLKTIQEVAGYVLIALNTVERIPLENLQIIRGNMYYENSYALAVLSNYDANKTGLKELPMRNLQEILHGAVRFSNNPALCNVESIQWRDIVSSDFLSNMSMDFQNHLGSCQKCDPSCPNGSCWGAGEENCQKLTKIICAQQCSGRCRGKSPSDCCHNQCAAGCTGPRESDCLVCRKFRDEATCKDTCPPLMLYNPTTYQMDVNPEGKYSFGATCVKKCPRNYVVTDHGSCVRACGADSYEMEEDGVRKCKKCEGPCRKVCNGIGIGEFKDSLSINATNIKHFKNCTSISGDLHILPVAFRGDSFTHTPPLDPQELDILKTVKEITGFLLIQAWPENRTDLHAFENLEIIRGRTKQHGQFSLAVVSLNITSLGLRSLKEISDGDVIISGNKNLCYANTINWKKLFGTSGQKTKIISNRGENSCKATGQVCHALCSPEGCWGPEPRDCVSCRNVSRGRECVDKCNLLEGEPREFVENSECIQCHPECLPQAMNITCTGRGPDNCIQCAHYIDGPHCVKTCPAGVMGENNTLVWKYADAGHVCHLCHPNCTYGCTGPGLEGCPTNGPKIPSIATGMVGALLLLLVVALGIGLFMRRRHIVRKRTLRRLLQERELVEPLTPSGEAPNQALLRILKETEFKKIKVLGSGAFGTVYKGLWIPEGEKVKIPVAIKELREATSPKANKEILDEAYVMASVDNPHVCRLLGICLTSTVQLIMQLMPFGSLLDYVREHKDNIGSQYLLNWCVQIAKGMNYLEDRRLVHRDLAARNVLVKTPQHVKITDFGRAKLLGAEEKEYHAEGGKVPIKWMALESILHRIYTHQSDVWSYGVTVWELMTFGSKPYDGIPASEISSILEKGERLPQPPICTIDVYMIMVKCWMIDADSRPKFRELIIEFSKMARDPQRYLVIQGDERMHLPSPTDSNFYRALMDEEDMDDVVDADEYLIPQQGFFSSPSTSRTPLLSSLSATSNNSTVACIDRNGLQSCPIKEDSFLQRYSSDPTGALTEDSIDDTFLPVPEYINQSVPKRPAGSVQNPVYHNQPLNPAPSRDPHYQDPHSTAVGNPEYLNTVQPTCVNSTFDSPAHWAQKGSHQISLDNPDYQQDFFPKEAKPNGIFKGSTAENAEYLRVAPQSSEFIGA
Assay: Biochemical EGFR inhibition assay (Caliper mobility shift), EGFR LRTMCS mutant
Conditions: inhibitory activity against EGFR LRTMCS mutant; apparent IC50; read-out: Ext Enz LRTMCS

[[record]]
compound = "CCS(=O)(=O)C[C@H]1CN(c2ncc(C(C)C)c3cc(Nc4ccnc(N5CC[C@@H](OCCO)[C@@H](F)C5)n4)ncc23)[C@@H]1C"
measured_target = "EGFR (L858R T790M C797S) (Homo sapiens, UniProt P00533, C797S/L858R/T790M)"
result = "≤ 15 nM"

[[record]]
compound = "CC(C)c1ccc(N2C[C@H](CS(C)(=O)=O)[C@H]2C)c2cnc(Nc3ccnc(N4CC[C@@](C)(O)C(F)(F)C4)n3)cc12 (single isomer, unassigned)"
measured_target = "EGFR (L858R T790M C797S) (Homo sapiens, UniProt P00533, C797S/L858R/T790M)"
result = "20.1 to 30 nM"


Query: Query (compound): CO[C@H]1CN(c2nccc(Nc3cc4c(C(C)C)ccc(N5C[C@H](CS(C)(=O)=O)[C@H]5C)c4cn3)n2)CC[C@@H]1O (single isomer, unassigned) [Compound 96] ; field requested: IC50
Result: 20.1 to 30 nM

Query: What value of IC50 has been recorded for this entry: `CO[C@@H]1CCN(c2nccc(Nc3cc4c(C(C)C)ncc(N5CC(CS(C)(=O)=O)C5)c4cn3)n2)C[C@]1(C)F`
Result: ≤ 15 nM

Query: Bench note: what IC50 did CO[C@@H]1CCN(c2nccc(Nc3cc4c(C(C)C)ccc(N5C[C@H](CS(C)(=O)=O)[C@H]5C)c4cn3)n2)C[C@@H]1OCCO (single isomer, unassigned) show?
Result: 30.1 to 100 nM

----------
Biological target: EGFR (L858R T790M C797S) (Homo sapiens, UniProt P00533, C797S/L858R/T790M)
Assay: Biochemical EGFR inhibition assay (Caliper mobility shift), EGFR LRTMCS mutant
Conditions: inhibitory activity against EGFR LRTMCS mutant; apparent IC50; read-out: Ext Enz LRTMCS
pIC50: −log10 of the molar value.
QUANTITY KIND: pIC50

The following molecules have reported results that may help.
[[record]]
molecule = "CC(C)c1ccc(N2C[C@H](CS(C)(=O)=O)[C@H]2C)c2cnc(Nc3ccnc(N4CC[C@@](C)(O)[C@H](O)C4)n3)cc12 (single isomer, unassigned)"
result = "≥ 7.82"

[[record]]
molecule = "COC1(CO)CCN(c2nccc(Nc3cc4c(C(C)C)ccc(N5C[C@H](CS(C)(=O)=O)[C@H]5C)c4cn3)n2)CC1"
result = "≥ 7.82"


Turning now to a further record.
Query: What value of pIC50 has been recorded for this entry: CO[C@H]1CN(c2nccc(Nc3cc4c(C(C)C)cnc(N5C[C@H](CS(C)(=O)=O)[C@H]5C)c4cn3)n2)C[C@@H](F)[C@H]1O (single isomer, unassigned)
Result: ≥ 7.82

----------
Examples of compounds with documented IC50 follow.
Target: EGFR (L858R T790M C797S) (Homo sapiens, UniProt P00533, C797S/L858R/T790M)
Experiment: Biochemical EGFR inhibition assay (Caliper mobility shift), EGFR LRTMCS mutant
Conditions: inhibitory activity against EGFR LRTMCS mutant; apparent IC50; read-out: Ext Enz LRTMCS
Description: Reactions proceeded until between 10% to 20% total peptides were phosphorylated at room temperature (25° C.) and were terminated with 35 mM 2,2′,2″,2′″-(ethane-1,2-diyldinitrilo)tetraacetic acid (EDTA). Product was detected using the Caliper mobility shift detection method where the phosphorylated peptide (product) and substrate were electrophoretically separated and measured. Percent activity was plotted against log concentration of compound and points to generate an apparent IC50.

// worked examples, IC50 included
[[record]]
compound = "CC(C)c1ccc(N2C[C@H](CS(C)(=O)=O)[C@H]2C)c2cnc(Nc3ccnc(N4CC[C@@H](OCC(C)(C)O)[C@@H](F)C4)n3)cc12 [Compound 256]"
measured_target = "EGFR (L858R T790M C797S) (Homo sapiens, UniProt P00533, C797S/L858R/T790M)"
result = "20.1 to 30 nM"

[[record]]
compound = "CO[C@@H]1CCN(c2nccc(Nc3cc4c(C(C)C)ccc(N5C[C@H](CS(C)(=O)=O)[C@H]5C)c4cn3)n2)C[C@@H]1CO (single isomer, unassigned) [Compound 173]"
measured_target = "EGFR (L858R T790M C797S) (Homo sapiens, UniProt P00533, C797S/L858R/T790M)"
result = "15.1 to 20 nM"

[[record]]
compound = "CO[C@H]1CCN(c2nccc(Nc3cc4cccc(N5C[C@H](CS(C)(=O)=O)[C@H]5C)c4cn3)n2)C[C@H]1F [Compound 4]"
measured_target = "EGFR (L858R T790M C797S) (Homo sapiens, UniProt P00533, C797S/L858R/T790M)"
result = "≤ 15 nM"

[[record]]
compound = "CO[C@H]1CCN(c2nccc(Nc3cc4c(C(C)C)ccc(N5C[C@H](CS(C)(=O)=O)[C@H]5C)c4cn3)n2)C[C@H]1C#N (single isomer, unassigned) [Compound 165]"
measured_target = "EGFR (L858R T790M C797S) (Homo sapiens, UniProt P00533, C797S/L858R/T790M)"
result = "≤ 15 nM"

[[record]]
compound = "CCS(=O)(=O)CC1CN(c2ccc(C)c3cc(Nc4ccnc(N5C[C@@H](F)[C@@H](O)C(C)(C)C5)n4)ncc23)C1 (single isomer, unassigned) [Compound 60]"
measured_target = "EGFR (L858R T790M C797S) (Homo sapiens, UniProt P00533, C797S/L858R/T790M)"
result = "≤ 15 nM"


Here's the next entry for you.
Query: I am curious: what IC50 value has been reported for CC(C)c1ccc(N2C[C@H](CS(C)(=O)=O)[C@H]2C)c2cnc(Nc3ccnc(N4CC[C@H](OCC(C)(C)O)[C@H](F)C4)n3)cc12 [Compound 255] ?
Result: 20.1 to 30 nM

----------
Target: EGFR (L858R T790M C797S) (Homo sapiens, UniProt P00533, C797S/L858R/T790M)
Assay: Biochemical EGFR inhibition assay (Caliper mobility shift), EGFR LRTMCS mutant
Conditions: inhibitory activity against EGFR LRTMCS mutant; apparent IC50; read-out: Ext Enz LRTMCS
pIC50: −log10 of the molar value.
Listed below: pIC50 values for each entry.

Record excerpt, results attached:
[[record]]
compound = "CCOc1ccc(N2CC(CS(=O)(=O)CC)C2)c2cnc(Nc3ccnc(N4CC[C@@H](O)[C@@](C)(F)C4)n3)cc12 (single isomer, unassigned) [Compound 145]"
measured_target = "EGFR (L858R T790M C797S) (Homo sapiens, UniProt P00533, C797S/L858R/T790M)"
quantity_kind = "pIC50"
result = "7.70 to 7.82"

[[record]]
compound = "CC1(C)CN(c2nccc(Nc3cc4ccnc(N5CC(CS(C)(=O)=O)C5)c4cn3)n2)C[C@@H](F)[C@H]1O (single isomer, unassigned) [Compound 6]"
measured_target = "EGFR (L858R T790M C797S) (Homo sapiens, UniProt P00533, C797S/L858R/T790M)"
quantity_kind = "pIC50"
result = "≥ 7.82"

[[record]]
compound = "CC(C)c1ccc(N2CC(CS(C)(=O)=O)C2)c2cnc(Nc3ccnc(N4C[C@@H](F)[C@@H](O)[C@](C)(F)C4)n3)cc12 (single isomer, unassigned) [Compound 156]"
measured_target = "EGFR (L858R T790M C797S) (Homo sapiens, UniProt P00533, C797S/L858R/T790M)"
quantity_kind = "pIC50"
result = "≥ 7.82"

[[record]]
compound = "CO[C@@H]1CCN(c2nccc(Nc3cc4c(C(C)C)ncc(N5CC(CS(C)(=O)=O)C5)c4cn3)n2)C[C@@H]1F [Compound 74]"
measured_target = "EGFR (L858R T790M C797S) (Homo sapiens, UniProt P00533, C797S/L858R/T790M)"
quantity_kind = "pIC50"
result = "≥ 7.82"


// next item, pIC50 requested
Query: Form: Entry = CO[C@H]1[C@@H](O)CN(c2nccc(Nc3cc4c(C(C)C)ncc(N5C[C@H](CS(C)(=O)=O)[C@H]5C)c4cn3)n2)CC1(F)F (single isomer, unassigned) [Compound 234] | System = EGFR (L858R T790M C797S) (Homo sapiens, UniProt P00533, C797S/L858R/T790M) | pIC50 = ____
Result: 7.52 to 7.70

----------
Biological target: EGFR (L858R T790M C797S) (Homo sapiens, UniProt P00533, C797S/L858R/T790M)
Experiment: Biochemical EGFR inhibition assay (Caliper mobility shift), EGFR LRTMCS mutant
Settings: inhibitory activity against EGFR LRTMCS mutant; apparent IC50; read-out: Ext Enz LRTMCS
QUANTITY KIND: IC50

[[record]]
compound = "CCOc1ccc(N2CC(CS(C)(=O)=O)C2)c2cnc(Nc3ccnc(N4CC[C@@H](O)[C@@](C)(F)C4)n3)cc12 (single isomer, unassigned)"
measured_target = "EGFR (L858R T790M C797S) (Homo sapiens, UniProt P00533, C797S/L858R/T790M)"
quantity_kind = "IC50"
result = "≤ 15 nM"

[[record]]
compound = "CC[C@@]1(F)CN(c2nccc(Nc3cc4c(C(C)C)ccc(N5C[C@H](CS(C)(=O)=O)[C@H]5C)c4cn3)n2)CC[C@@H]1O (single isomer, unassigned)"
measured_target = "EGFR (L858R T790M C797S) (Homo sapiens, UniProt P00533, C797S/L858R/T790M)"
quantity_kind = "IC50"
result = "≤ 15 nM"

[[record]]
compound = "CCS(=O)(=O)CC1CN(c2ccc(C(C)C)c3cc(Nc4ccnc(N5CC[C@@H](OC)[C@@H](O)C5)n4)ncc23)C1 (single isomer, unassigned)"
measured_target = "EGFR (L858R T790M C797S) (Homo sapiens, UniProt P00533, C797S/L858R/T790M)"
quantity_kind = "IC50"
result = "≤ 15 nM"

[[record]]
compound = "CC(C)c1ccc(N2CC(CS(C)(=O)=O)C2)c2cnc(Nc3ccnc(N4CCC5(OCCO5)[C@H](F)C4)n3)cc12 (single isomer, unassigned) [Compound 180]"
measured_target = "EGFR (L858R T790M C797S) (Homo sapiens, UniProt P00533, C797S/L858R/T790M)"
quantity_kind = "IC50"
result = "≤ 15 nM"

[[record]]
compound = "CCS(=O)(=O)C[C@H]1CN(c2cnc(C(C)C)c3cc(Nc4ccnc(N5CC[C@@](C)(O)C(F)(F)C5)n4)ncc23)[C@@H]1C (single isomer, unassigned)"
measured_target = "EGFR (L858R T790M C797S) (Homo sapiens, UniProt P00533, C797S/L858R/T790M)"
quantity_kind = "IC50"
result = "≤ 15 nM"

[[record]]
compound = "CCS(=O)(=O)C[C@H]1CN(c2ccc(C(C)C)c3cc(Nc4ccnc(N5CC[C@@H](OCCO)[C@@H](F)C5)n4)ncc23)[C@@H]1C"
measured_target = "EGFR (L858R T790M C797S) (Homo sapiens, UniProt P00533, C797S/L858R/T790M)"
quantity_kind = "IC50"
result = "≤ 15 nM"

[[record]]
compound = "C[C@H](CO)c1ccc(N2C[C@H](CS(C)(=O)=O)[C@H]2C)c2cnc(Nc3ccnc(N4CC[C@@](C)(O)[C@@H](F)C4)n3)cc12 (single isomer, unassigned)"
measured_target = "EGFR (L858R T790M C797S) (Homo sapiens, UniProt P00533, C797S/L858R/T790M)"
quantity_kind = "IC50"
result = "≤ 15 nM"

[[record]]
compound = "CC(C)c1ccc(N2C[C@H](CS(C)(=O)=O)[C@H]2C)c2cnc(Nc3ccnc(N4CC[C@@H](OCCN(C)C)C(F)(F)C4)n3)cc12 (single isomer, unassigned) [Compound 304]"
measured_target = "EGFR (L858R T790M C797S) (Homo sapiens, UniProt P00533, C797S/L858R/T790M)"
quantity_kind = "IC50"
result = "≤ 15 nM"


Query: Could you tell me which IC50 is on file for `COC1CCN(c2nccc(Nc3cc4c(C(C)C)cnc(N5C[C@H](CS(C)(=O)=O)[C@H]5C)c4cn3)n2)CC1` ?
Result: ≤ 15 nM

Query: Request the reported IC50 associated with CC(C)c1ccc(N2C[C@H](CS(C)(=O)=O)[C@H]2C)c2cnc(Nc3ccnc(N4CC[C@H](OCCO)C(F)(F)C4)n3)cc12 (single isomer, unassigned)
Result: 20.1 to 30 nM
